Target: human recombinant LRRK2 protein (Homo sapiens, UniProt Q5S007)
Sequence (Q5S007 whole entry): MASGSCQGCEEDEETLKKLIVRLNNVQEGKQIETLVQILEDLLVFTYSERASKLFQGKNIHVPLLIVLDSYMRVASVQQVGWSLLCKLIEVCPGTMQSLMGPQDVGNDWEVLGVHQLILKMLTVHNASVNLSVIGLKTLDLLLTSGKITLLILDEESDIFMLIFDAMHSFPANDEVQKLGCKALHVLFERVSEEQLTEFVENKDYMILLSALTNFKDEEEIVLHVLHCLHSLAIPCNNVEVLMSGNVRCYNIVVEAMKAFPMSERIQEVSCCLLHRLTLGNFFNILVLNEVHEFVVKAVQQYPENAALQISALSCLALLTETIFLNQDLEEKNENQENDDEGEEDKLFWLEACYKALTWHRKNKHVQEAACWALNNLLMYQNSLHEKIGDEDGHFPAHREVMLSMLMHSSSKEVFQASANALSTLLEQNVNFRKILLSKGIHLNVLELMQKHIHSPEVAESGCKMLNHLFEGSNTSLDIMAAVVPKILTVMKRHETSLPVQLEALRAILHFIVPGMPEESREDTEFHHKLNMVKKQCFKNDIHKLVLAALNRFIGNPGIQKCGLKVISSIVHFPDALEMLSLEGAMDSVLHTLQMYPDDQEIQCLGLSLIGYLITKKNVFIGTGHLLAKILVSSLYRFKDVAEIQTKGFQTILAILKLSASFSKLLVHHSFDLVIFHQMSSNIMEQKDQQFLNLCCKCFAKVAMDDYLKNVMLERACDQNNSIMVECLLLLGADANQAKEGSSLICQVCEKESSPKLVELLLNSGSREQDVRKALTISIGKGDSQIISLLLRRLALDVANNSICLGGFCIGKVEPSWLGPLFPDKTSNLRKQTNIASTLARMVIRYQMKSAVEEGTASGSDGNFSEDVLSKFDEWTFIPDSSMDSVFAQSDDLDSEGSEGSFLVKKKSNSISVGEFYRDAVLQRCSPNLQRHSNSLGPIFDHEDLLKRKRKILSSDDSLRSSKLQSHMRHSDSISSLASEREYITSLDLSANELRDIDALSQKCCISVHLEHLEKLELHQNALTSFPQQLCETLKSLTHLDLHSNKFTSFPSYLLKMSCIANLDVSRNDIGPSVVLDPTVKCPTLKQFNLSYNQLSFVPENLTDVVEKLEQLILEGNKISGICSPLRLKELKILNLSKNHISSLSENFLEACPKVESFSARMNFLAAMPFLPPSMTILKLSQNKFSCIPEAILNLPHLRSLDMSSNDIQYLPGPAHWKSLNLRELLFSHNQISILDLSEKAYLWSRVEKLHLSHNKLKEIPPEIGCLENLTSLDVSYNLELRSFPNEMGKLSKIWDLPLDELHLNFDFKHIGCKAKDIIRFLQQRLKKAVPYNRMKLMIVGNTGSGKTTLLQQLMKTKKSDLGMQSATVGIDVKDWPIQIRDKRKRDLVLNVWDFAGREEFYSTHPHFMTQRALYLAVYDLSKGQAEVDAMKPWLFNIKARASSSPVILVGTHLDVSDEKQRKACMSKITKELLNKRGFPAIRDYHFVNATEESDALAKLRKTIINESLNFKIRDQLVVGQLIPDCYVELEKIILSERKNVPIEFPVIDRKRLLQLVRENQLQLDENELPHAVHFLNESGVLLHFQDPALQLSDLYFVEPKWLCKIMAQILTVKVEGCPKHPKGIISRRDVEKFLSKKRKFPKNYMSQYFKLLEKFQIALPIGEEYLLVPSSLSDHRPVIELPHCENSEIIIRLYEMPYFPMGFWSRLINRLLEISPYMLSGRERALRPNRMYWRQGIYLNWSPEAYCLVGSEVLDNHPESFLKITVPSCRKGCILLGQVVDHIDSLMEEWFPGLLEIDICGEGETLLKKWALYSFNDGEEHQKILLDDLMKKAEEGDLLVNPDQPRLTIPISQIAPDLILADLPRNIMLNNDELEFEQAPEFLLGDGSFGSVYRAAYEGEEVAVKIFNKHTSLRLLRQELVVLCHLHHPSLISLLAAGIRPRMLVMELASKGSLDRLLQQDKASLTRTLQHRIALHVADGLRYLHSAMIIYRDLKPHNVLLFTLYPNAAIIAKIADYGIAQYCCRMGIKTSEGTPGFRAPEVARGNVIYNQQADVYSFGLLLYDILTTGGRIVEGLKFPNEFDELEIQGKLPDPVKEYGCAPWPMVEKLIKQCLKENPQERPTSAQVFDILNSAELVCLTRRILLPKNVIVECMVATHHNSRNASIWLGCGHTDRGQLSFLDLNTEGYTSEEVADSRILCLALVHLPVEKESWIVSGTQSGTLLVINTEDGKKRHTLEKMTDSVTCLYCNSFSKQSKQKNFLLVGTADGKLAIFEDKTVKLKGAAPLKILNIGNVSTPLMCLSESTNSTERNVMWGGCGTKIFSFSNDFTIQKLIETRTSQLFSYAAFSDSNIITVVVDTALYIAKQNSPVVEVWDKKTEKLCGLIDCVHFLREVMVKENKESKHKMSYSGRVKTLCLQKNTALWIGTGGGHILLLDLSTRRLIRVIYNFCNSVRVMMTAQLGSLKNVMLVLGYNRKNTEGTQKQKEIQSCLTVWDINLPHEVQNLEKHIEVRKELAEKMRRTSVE
Test: LRRK2 kinase activity assay (ADP-Glo, LRRKtide peptide)
Conditions: human recombinant LRRK2 wt, LRRKtide peptide and ATP, 1 h at 37° C.
pIC50: −log10 of the molar value.
Metric: pIC50

For orientation, consider the following solved cases.
Compound: O=C1COc2cncc(c2)-c2n[nH]c3ccc(cc23)OCC(F)(F)CN1
Data Value: > 8.00

Compound: C[C@@H]1COCCO[C@@H](C)COc2ccc3[nH]nc(c3c2)-c2cnn1c2
Data Value: > 8.00

Compound: c1cc2[nH]nc3c2cc1OCCCOCCOc1cncc-3c1
Data Value: > 8.00

Compound: O=C1COc2cc(cc(C3CCCCO3)c2)-c2n[nH]c3ccc(cc23)OCCCN1 (stereo not drawn)
Data Value: > 8.00

Compound: C[C@@H]1CCN(C)C(=O)C[C@H](C)n2ncc(n2)-c2n[nH]c3ccc(cc23)O1
Data Value: > 7.00

For each of the compounds below, note its pIC50.
1. O=C1COc2cncc(c2)-c2n[nH]c3ccc(cc23)OCCCN1
2. O=C1COc2cc(cc(N3CCOCC3)c2)-c2n[nH]c3ccc(cc23)OCCCN1
3. C[C@H]1COc2nccc(n2)-c2n[nH]c3ccc(cc23)O[C@@H](C)CCO1
4. Clc1cc2cc(c1)-c1n[nH]c3ccc(cc13)OCCCNCCO2

Resp:
["> 8.00", "> 8.00", "> 7.00", "> 8.00"]
